IC50 values by entry
- testTarget: Phospholipase A2, membrane associated (Homo sapiens, UniProt P14555)
- Sequence (P14555 whole entry): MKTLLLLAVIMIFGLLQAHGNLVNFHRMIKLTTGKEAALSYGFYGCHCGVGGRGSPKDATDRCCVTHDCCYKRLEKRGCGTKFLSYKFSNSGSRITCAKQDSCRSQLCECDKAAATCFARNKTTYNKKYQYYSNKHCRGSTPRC
- experimentSummary: Compound was tested for in vitro activity against S-phospholipase A2 (s-PLA2) isolated from human platelets
Reply numerically in nM, unit not repeated.

[in] What IC50 value was documented for this compound, CCCCCC/C=C/CC(=O)N[C@H](CCC(=O)O)CSc1ccc2ccccc2c1 ?
[out] 12000

[in] Lookup CCCCCC/C=C/CC(=O)N[C@@H](CCC(=O)O)CSc1ccc2ccccc2c1
[out] 1850

[in] Lookup CCCCCC/C=C/CC(=O)N[C@H](CSc1ccc(Cc2ccccc2)cc1)CC(=O)O
[out] 3800

[in] Lookup O=C(O)C[C@@H](CSc1ccc(Cc2ccccc2)cc1)NC(=O)CCCCCCc1ccccc1
[out] 65
